So I've got IC50 readings for Rho-associated protein kinase 1 (Homo sapiens, UniProt Q13464), take a look.

structureAsSmiles: COCCOC(=O)Nc1cc(-c2nnc(Nc3ccc4[nH]ncc4c3Cl)s2)ccn1
IC50: > 30 µM
--
structureAsSmiles: Cc1cn2cccc(-c3nnc(Nc4ccc5[nH]ncc5c4Cl)s3)c2n1
IC50: < 1 µM
--
structureAsSmiles: CC(=O)Nc1cc(C)cc(-c2nnc(Nc3ccc4[nH]ncc4c3)s2)c1
IC50: > 30 µM
--
structureAsSmiles: CC(=O)Nc1cc(C(N)=O)cc(-c2nnc(Nc3ccc4[nH]ncc4c3)s2)c1
IC50: < 1 µM
--
structureAsSmiles: CCOC(=O)N(c1nnc(-c2cccc(NC(=O)Cc3ccc(F)cc3)c2)s1)c1ccc2[nH]ncc2c1Cl
IC50: > 30 µM
--
structureAsSmiles: CC(C)(O)C(=O)Nc1cccc(-c2nnc(Nc3ccc4[nH]ncc4c3Cl)s2)c1
IC50: < 1 µM
--
structureAsSmiles: CC(=O)Nc1cc(C(=O)N2CCNCC2)cc(-c2nnc(Nc3ccc4[nH]ncc4c3Cl)s2)c1
IC50: < 1 µM
--
structureAsSmiles: Clc1c(Nc2nnc(-c3cccc(-c4nccn4CCN4CCCC4)c3)s2)ccc2[nH]ncc12
IC50: > 30 µM

Where these numbers come from: ChEMBL document CHEMBL5725844
